Values from patent US20040142993A1

Documented IC50 across a set of molecules
ASSAY_TARGET: HCV NS5b RNA dependent RNA polymerase (Hepatitis C virus genotype 1a, UniProt P27958)
Sequence (P27958 2421-3011): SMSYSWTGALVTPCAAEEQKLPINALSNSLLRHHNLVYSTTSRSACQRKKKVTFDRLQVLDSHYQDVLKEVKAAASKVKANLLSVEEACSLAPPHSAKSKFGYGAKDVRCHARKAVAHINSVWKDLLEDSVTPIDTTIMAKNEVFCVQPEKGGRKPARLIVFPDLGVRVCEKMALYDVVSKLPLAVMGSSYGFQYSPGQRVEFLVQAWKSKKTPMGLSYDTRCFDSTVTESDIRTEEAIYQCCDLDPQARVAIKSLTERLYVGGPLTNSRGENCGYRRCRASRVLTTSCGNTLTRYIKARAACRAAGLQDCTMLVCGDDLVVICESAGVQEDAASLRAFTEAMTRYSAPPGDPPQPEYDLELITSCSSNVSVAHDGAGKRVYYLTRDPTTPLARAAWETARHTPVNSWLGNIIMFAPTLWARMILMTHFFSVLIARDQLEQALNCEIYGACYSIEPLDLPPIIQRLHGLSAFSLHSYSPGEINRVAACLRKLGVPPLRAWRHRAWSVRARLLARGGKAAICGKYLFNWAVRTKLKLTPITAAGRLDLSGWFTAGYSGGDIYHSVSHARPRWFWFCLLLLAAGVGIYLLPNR
Structures can show the parent of a compound that is named as a salt.

O=C(O)c1ccccc1Nc1ccccc1Nc1cc(F)c(F)cc1C(=O)O	1000 to 20000 nM
NCCc1ccc(Nc2ccc(C(F)(F)F)cc2Nc2ccccc2C(=O)O)c(C(=O)O)c1 [xxvii, hydrochloride]	< 1000 nM
NCc1ccc(Nc2ccc(C(F)(F)F)cc2Nc2ccccc2C(=O)O)c(C(=O)O)c1 [xxiv, hydrochloride]	< 1000 nM
O=C(O)c1ccccc1Nc1ccc(F)cc1Nc1ccccc1C(=O)O	1000 to 20000 nM
O=C(O)c1ccccc1Nc1ccccc1Nc1cc(F)ccc1C(=O)O	> 20000 nM
c1ccc(Nc2ccccc2-c2nnn[nH]2)c(Nc2ccccc2-c2nnn[nH]2)c1 [lv, disodium salt]	1000 to 20000 nM
O=C(O)c1ccccc1Nc1ccc(C(F)(F)F)cc1Nc1ccccc1C(=O)O	< 1000 nM
N#Cc1ccc(Nc2ccc(C(F)(F)F)cc2Nc2ccccc2C(=O)O)c(C(=O)O)c1	1000 to 20000 nM

# context switch: different molecule, same IC50
[ask] Quote HCV NS5b RNA dependent RNA polymerase (Hepatitis C virus genotype 1a, UniProt P27958) IC50 for entry O=C(O)c1ccccc1Nc1ccccc1Nc1ccccc1C(=O)O .
[reply] > 20000 nM

====

IC50 values recorded for HCV NS5b RNA dependent RNA polymerase (Hepatitis C virus genotype 1a, UniProt P27958)

[ask] Output measured IC50 for this item: O=C(O)c1ccccc1Nc1ccc(C(F)(F)F)cc1Nc1ccc(CN2CCCC2)cc1C(=O)O [xxx]
[reply] 1 to 20 µM

[ask] Output measured IC50 for this item: O=C(O)c1ccccc1Nc1cc(C(F)(F)F)ccc1Oc1ccccc1C(=O)O [lxv]
[reply] 1 to 20 µM

====

IC50 values recorded for HCV NS5b RNA dependent RNA polymerase (Hepatitis C virus genotype 1a, UniProt P27958)
Where a name gives a salt, the structure may show the parent alone.

Solved entries:
Cc1ccc(Nc2ccccc2C(=O)O)c(Nc2ccccc2C(=O)O)c1 [xl]	1 to 20 µM
NCc1ccc(Nc2cc(C(F)(F)F)ccc2Oc2ccccc2C(=O)O)c(C(=O)O)c1 [xxv, hydrochloride]	> 20 µM

# context switch: different compound, same IC50
[ask] Quote HCV NS5b RNA dependent RNA polymerase (Hepatitis C virus genotype 1a, UniProt P27958) IC50 for entry NCCc1ccc(Nc2cc(C(F)(F)F)ccc2Nc2ccccc2C(=O)O)c(C(=O)O)c1 [xxxviii, hydrochloride] .
[reply] < 1 µM

====

pIC50: −log10 of the molar value.
pIC50 values recorded for HCV NS5b RNA dependent RNA polymerase (Hepatitis C virus genotype 1a)

COc1ccc(Nc2ccccc2Nc2ccccc2C(=O)O)c(C(=O)O)c1 [lx]	< 4.70
N[C@@H](Cc1ccccc1)C(=O)NCc1ccc(Nc2cc(C(F)(F)F)ccc2Nc2ccccc2C(=O)O)c(C(=O)O)c1 [xviii]	< 4.70

[ask] Quote HCV NS5b RNA dependent RNA polymerase (Hepatitis C virus genotype 1a) pIC50 for entry N#Cc1ccc(Nc2ccccc2Nc2ccccc2C(=O)O)c(C(=O)O)c1 [li] .
[reply] 4.70 to 6.00
